B1: Twister Ribozyme (parent)
chain: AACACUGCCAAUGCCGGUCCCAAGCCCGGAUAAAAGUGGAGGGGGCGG

Variants of: B1
procedure details: self-cleavage, relative activity (ratio to wild type); higher = more cleavage; co-transcriptional
measured parameter: self-cleavage

>  <variant name>
C14A G47U

>  <observed measurement>
0.66

$$$$
>  <variant name>
A30G C46U

>  <observed measurement>
0.779

$$$$
>  <variant name>
C15G G28C

>  <observed measurement>
0.599

$$$$
>  <variant name>
C8A U37A

>  <observed measurement>
0.225

$$$$
>  <variant name>
A35U G43U

>  <observed measurement>
0.352

$$$$
>  <variant name>
C5G C21A

>  <observed measurement>
0.0944

$$$$
>  <variant name>
C8A G17U

>  <observed measurement>
0.0971

$$$$
>  <variant name>
A34U A40C

>  <observed measurement>
0.137

$$$$
>  <variant name>
U18A G28A

>  <observed measurement>
0.2

$$$$
>  <variant name>
U12C A35U

>  <observed measurement>
0.91

$$$$
>  <variant name>
C26G G39U

>  <observed measurement>
0.103

$$$$
>  <variant name>
C9G G28U

>  <observed measurement>
0.428

$$$$
>  <variant name>
A2U C9A

>  <observed measurement>
0.0899

$$$$
>  <variant name>
C3A U18G

>  <observed measurement>
0.0709

$$$$
>  <variant name>
G16C G43U

>  <observed measurement>
0.11

$$$$
>  <variant name>
A2U G43A

>  <observed measurement>
0.128

$$$$
>  <variant name>
C15U A40G

>  <observed measurement>
0.162

$$$$
>  <variant name>
A32C A40C

>  <observed measurement>
0.159

$$$$
>  <variant name>
G16U G42C

>  <observed measurement>
0.25

$$$$
>  <variant name>
U6G C46U

>  <observed measurement>
0.632

$$$$
>  <variant name>
G39C G47A

>  <observed measurement>
0.152

$$$$
>  <variant name>
C15A C27U

>  <observed measurement>
0.0943

$$$$
>  <variant name>
G44A G48C

>  <observed measurement>
1.11

$$$$
>  <variant name>
A10G G38U

>  <observed measurement>
0.91

$$$$
>  <variant name>
C14A G45A

>  <observed measurement>
0.801

$$$$
>  <variant name>
A10U A34C

>  <observed measurement>
0.279

$$$$
>  <variant name>
C20A A30U

>  <observed measurement>
0.175

$$$$
>  <variant name>
C3A G28U

>  <observed measurement>
0.144

$$$$
>  <variant name>
C27U G45U

>  <observed measurement>
0.638

$$$$
>  <variant name>
C19G A30C

>  <observed measurement>
0.0929

$$$$
>  <variant name>
C5G G24A

>  <observed measurement>
0.0701

$$$$
>  <variant name>
C20U G43A

>  <observed measurement>
0.177

$$$$
>  <variant name>
A30U G42A

>  <observed measurement>
0.464

$$$$
>  <variant name>
G13U A32G

>  <observed measurement>
0.354

$$$$
>  <variant name>
A23G G42U

>  <observed measurement>
0.121

$$$$
>  <variant name>
U18C A30G

>  <observed measurement>
0.713

$$$$
>  <variant name>
U12A C14A

>  <observed measurement>
0.997

$$$$
>  <variant name>
A23U

>  <observed measurement>
0.697

$$$$
>  <variant name>
G39U G44U

>  <observed measurement>
0.164

$$$$
>  <variant name>
C21G G36U

>  <observed measurement>
0.0888

$$$$
>  <variant name>
A40C G42C

>  <observed measurement>
0.164

$$$$
>  <variant name>
C21A G29U

>  <observed measurement>
0.134

$$$$
>  <variant name>
C8G C27A

>  <observed measurement>
0.0513

$$$$
>  <variant name>
C3U G43U

>  <observed measurement>
0.0863

$$$$
>  <variant name>
C27U A33U

>  <observed measurement>
0.709

$$$$
>  <variant name>
U6C G28A

>  <observed measurement>
0.319

$$$$
